Biological target: Potassium channel subfamily K member 9 (Homo sapiens)
Sequence (Q9NPC2 whole entry): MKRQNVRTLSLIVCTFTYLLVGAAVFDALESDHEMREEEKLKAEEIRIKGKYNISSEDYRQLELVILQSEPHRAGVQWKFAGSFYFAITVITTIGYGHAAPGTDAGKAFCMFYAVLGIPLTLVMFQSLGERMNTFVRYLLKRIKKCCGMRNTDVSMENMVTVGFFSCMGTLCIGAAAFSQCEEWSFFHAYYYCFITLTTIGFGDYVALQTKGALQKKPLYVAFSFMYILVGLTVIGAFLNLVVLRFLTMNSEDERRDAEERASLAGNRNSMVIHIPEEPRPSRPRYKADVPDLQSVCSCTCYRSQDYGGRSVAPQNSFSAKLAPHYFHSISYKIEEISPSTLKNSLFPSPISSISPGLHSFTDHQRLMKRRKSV
Assay: Inhibition of Recombinant TASK-1 and TASK-3 In Vitro: The investigations on the inhibition of the recombinant TASK-1 and TASK-3 channels were conducted using stably transfected CHO cells. The compounds according to the invention were tested in this case by application of 40 mM potassium chloride in the presence of a voltage-sensitive dye according to the method described in detail in the following references [Whiteaker et al., Validation of FLIPR membrane potential dye for high-throughput screening of potassium channel modulators, J. Biomol. Screen. 6 (5), 305-312 (2001); Molecular Devices FLIPR Application Note: Measuring membrane potential using the FLIPR® membrane potential assay kit on Fluorometric Imaging Plate Reader (FLIPR®) systems, http://www.moleculardevices.com/reagents-supplies/assay-kits/ion-channels/flipr-membrane-potential-assay-kits]. The activity of the test substances was determined as their ability to inhibit a depolarization induced in the recombinant cells by 40 mM potassium chloride. The concentration which can block half of this depolarization is referred to as IC50.
pIC50: −log10 of the molar value.
value kind: pIC50

• CNc1cccc(C(=O)N2C3CCC2CN(Cc2c(-c4ccc(Cl)cc4)nc4ncccn24)C3)n1 = 5.82
